- Tested on: human platelet Caspase-3 activity
- PROTOCOL_DETAILS: Human platelet toxicity experiment (Caspase-3 activity assay)
- Type: cell-based
- EXPERIMENTAL_SETUP: compound concentration 2 μM, 90 min; data normalized, reference ABT-199
# human platelet Caspase-3 activity, Slope >= 0.3 gives y, anything below gives n

INSERT INTO measurements (molecule, target_desc, answer_label) VALUES
  ('CCS(=O)(=O)N1CCOC(CNc2ccc(S(=O)(=O)NC(=O)c3ccc(N4CCN(CC5=C(c6ccc(C(F)(F)F)cc6Cl)CC(C)(C)CC5)CC4)cc3Oc3cnc4[nH]ccc4c3)cc2[N+](=O)[O-])C1 (centres unmarked) [Compound 57-1]', 'human platelet Caspase-3 activity', 'n'),
  ('COCC(=O)N1CCO[C@H](CNc2ccc(S(=O)(=O)NC(=O)c3ccc(N4CCN(CC5=C(c6ccc(C(F)(F)F)cc6Cl)CC(C)(C)CC5)CC4)cc3Oc3cnc4[nH]ccc4c3)cc2[N+](=O)[O-])C1 [Compound 11-1]', 'human platelet Caspase-3 activity', 'y'),
  ('CC1(C)CCC(CN2CCN(c3ccc(C(=O)NS(=O)(=O)c4ccc(NC[C@@H]5CCCOC5)c([N+](=O)[O-])c4)c(Oc4cnc5[nH]ccc5c4)c3)CC2)=C(c2ccc(C(F)(F)F)cc2Cl)C1 [Compound 43-1]', 'human platelet Caspase-3 activity', 'n'),
  ('CC(=O)N1CCO[C@H](CNc2ccc(S(=O)(=O)NC(=O)c3ccc(N4CCN(CC5=C(c6ccc(C(F)(F)F)cc6Cl)CC(C)(C)CC5)CC4)cc3Oc3cnc4[nH]ccc4c3)cc2[N+](=O)[O-])C1 [Compound 65-1]', 'human platelet Caspase-3 activity', 'y'),
  ('CC1(C)CCC(CN2CCN(c3ccc(C(=O)NS(=O)(=O)c4ccc(NCC5CN(S(C)(=O)=O)CCO5)c([N+](=O)[O-])c4)c(Oc4cnc5[nH]ccc5c4)c3)CC2)=C(c2ccc(C(F)(F)F)cc2Cl)C1 (centres unmarked) [Compound 12-1]', 'human platelet Caspase-3 activity', 'y');

---

- PROTOCOL_DETAILS: Pharmacokinetics in beagle dogs
- Type: in vivo
- EXPERIMENTAL_SETUP: male, dog, plasma, po, intragastric 2.5 mg/kg
READOUT_TYPE: Tmax (h)

INSERT INTO measurements (mol, endpoint_value) VALUES
  ('CC1(C)CCC(CN2CCN(c3ccc(C(=O)NS(=O)(=O)c4ccc(NC[C@H]5COCCO5)c([N+](=O)[O-])c4)c(Oc4cnc5[nH]ccc5c4)c3)CC2)=C(c2ccc(C(F)(F)F)cc2Cl)C1', 3.33);

---

- TARGET_DESC: BCL-XL/BAK (Homo sapiens, UniProt Q07817)
- Sequence (Q07817 whole entry, species assumed): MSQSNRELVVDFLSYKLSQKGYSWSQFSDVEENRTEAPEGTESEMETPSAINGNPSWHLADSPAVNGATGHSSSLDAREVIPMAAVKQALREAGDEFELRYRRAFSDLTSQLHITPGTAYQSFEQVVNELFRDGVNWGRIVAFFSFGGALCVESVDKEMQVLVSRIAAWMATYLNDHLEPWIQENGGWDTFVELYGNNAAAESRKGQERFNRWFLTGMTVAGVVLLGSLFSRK
- PROTOCOL_DETAILS: Screening on inhibitory activity for BCL-XL/BAK binding (Cisbio HTRF kit)
- Experimental: 1.2 Screening on Inhibitory Activity for BCL-XL/BAK Binding 300 nM Tag1-BCL-XL protein stock solution and 10 μM Tag2-BAK protein stock solution were diluted to 2 nM and 80 nM respectively with dilution buffer in kit (model: BCL-XL/BAK (BH3) BINDING ASSAY KITS, from Cisbio). […] The plate was read using a PE Envision multi-functional microplate reader (excitation: […], emission: 665 nm) and IC50 (shown in table 1) was calculated by four-parameter fitting.
Item-by-item account of IC50
READOUT_TYPE: IC50 (nM)

INSERT INTO assay_data (molecule, target_desc, endpoint_value) VALUES
  ('COCC(=O)N1CCC(CNc2ccc(S(=O)(=O)NC(=O)c3ccc(N4CCN(CC5=C(c6ccc(C(F)(F)F)cc6Cl)CC(C)(C)CC5)CC4)cc3Oc3cnc4[nH]ccc4c3)cc2[N+](=O)[O-])CC1 [Compound 73-1]', 'BCL-XL/BAK (Homo sapiens, UniProt Q07817)', 204),
  ('CC1(C)CCC(CN2CCN(c3ccc(C(=O)NS(=O)(=O)c4ccc(NC[C@@H]5CN(S(C)(=O)=O)CCO5)c([N+](=O)[O-])c4)c(Oc4cnc5[nH]ccc5c4)c3)CC2)=C(c2ccc(C(F)(F)F)cc2Cl)C1 [Compound 67-1]', 'BCL-XL/BAK (Homo sapiens, UniProt Q07817)', 199),
  ('CC1(C)CCC(CN2CCN(c3ccc(C(=O)NS(=O)(=O)c4ccc(NCCC5CCCOC5)c([N+](=O)[O-])c4)c(Oc4cnc5[nH]ccc5c4)c3)CC2)=C(c2ccc(C(F)(F)F)cc2Cl)C1 (stereo not shown) [Compound 45-1]', 'BCL-XL/BAK (Homo sapiens, UniProt Q07817)', 243),
  ('CCS(=O)(=O)N1CCOC(CNc2ccc(S(=O)(=O)NC(=O)c3ccc(N4CCN(CC5=C(c6ccc(C(F)(F)F)cc6Cl)CC(C)(C)CC5)CC4)cc3Oc3cnc4[nH]ccc4c3)cc2[N+](=O)[O-])C1 (stereo not shown) [Compound 57-1]', 'BCL-XL/BAK (Homo sapiens, UniProt Q07817)', 268);

---

- TARGET_DESC: BCL-2/BAK (Homo sapiens, UniProt P10415)
- Construct: purchased Cisbio
- Sequence (P10415 whole entry, species assumed): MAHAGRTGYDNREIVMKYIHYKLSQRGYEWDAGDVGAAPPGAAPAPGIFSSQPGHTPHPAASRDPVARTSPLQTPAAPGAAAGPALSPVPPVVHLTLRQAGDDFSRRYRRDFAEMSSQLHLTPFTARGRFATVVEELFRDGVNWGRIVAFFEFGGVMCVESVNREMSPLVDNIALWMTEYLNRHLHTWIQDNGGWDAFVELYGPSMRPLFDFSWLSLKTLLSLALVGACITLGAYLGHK
- PROTOCOL_DETAILS: Screening on inhibitory activity for BCL-2/BAK binding (Cisbio HTRF kit)
READOUT_TYPE: IC50

INSERT INTO measurements (compound, endpoint_value) VALUES
  ('CC1(C)CCC(CN2CCN(c3ccc(C(=O)NS(=O)(=O)c4ccc(NCCCC5CN(S(C)(=O)=O)CCO5)c([N+](=O)[O-])c4)c(Oc4cnc5[nH]ccc5c4)c3)CC2)=C(c2ccc(C(F)(F)F)cc2Cl)C1 (stereo not shown)', '0.76 nM'),
  ('CC(=O)N1CCOC(CCNc2ccc(S(=O)(=O)NC(=O)c3ccc(N4CCN(CC5=C(c6ccc(C(F)(F)F)cc6Cl)CC(C)(C)CC5)CC4)cc3Oc3cnc4[nH]ccc4c3)cc2[N+](=O)[O-])C1 (stereo not shown)', '3.09 nM'),
  ('CN(C)CC(=O)N1CCC(CNc2ccc(S(=O)(=O)NC(=O)c3ccc(N4CCN(CC5=C(c6ccc(C(F)(F)F)cc6Cl)CC(C)(C)CC5)CC4)cc3Oc3cnc4[nH]ccc4c3)cc2[N+](=O)[O-])CC1', '1.1 nM'),
  ('COCC(=O)N1CCOC(CCNc2ccc(S(=O)(=O)NC(=O)c3ccc(N4CCN(CC5=C(c6ccc(C(F)(F)F)cc6Cl)CC(C)(C)CC5)CC4)cc3Oc3cnc4[nH]ccc4c3)cc2[N+](=O)[O-])C1 (stereo not shown)', '2.32 nM');

---

- PROTOCOL_DETAILS: Pharmacokinetics in beagle dogs
- Type: in vivo
- EXPERIMENTAL_SETUP: male, dog, plasma, po, intragastric 2.5 mg/kg, read-out: AUC0-72 h
READOUT_TYPE: AUC(0-t) (ng·h/mL)

INSERT INTO assay_data (mol, readout_unit, endpoint_value) VALUES
  ('CC1(C)CCC(CN2CCN(c3ccc(C(=O)NS(=O)(=O)c4ccc(NC[C@H]5COCCO5)c([N+](=O)[O-])c4)c(Oc4cnc5[nH]ccc5c4)c3)CC2)=C(c2ccc(C(F)(F)F)cc2Cl)C1', 'ng·h/mL', 26300);

---

Item-by-item account of human platelet Caspase-3 activity, Slope
- System: human platelet Caspase-3 activity
- PROTOCOL_DETAILS: Human platelet toxicity experiment (Caspase-3 activity assay)
- Format: cell-based
- EXPERIMENTAL_SETUP: compound concentration 1 μM, 90 min; data normalized, reference ABT-199
READOUT_TYPE: human platelet Caspase-3 activity, Slope

INSERT INTO assay_data (mol, target_desc, endpoint_value) VALUES
  ('CCN1CCC(CCNc2ccc(S(=O)(=O)NC(=O)c3ccc(N4CCN(CC5=C(c6ccc(C(F)(F)F)cc6Cl)CC(C)(C)CC5)CC4)cc3Oc3cnc4[nH]ccc4c3)cc2[N+](=O)[O-])CC1', 'human platelet Caspase-3 activity', 0.12),
  ('CN1CCC(CCNc2ccc(S(=O)(=O)NC(=O)c3ccc(N4CCN(CC5=C(c6ccc(C(F)(F)F)cc6Cl)CC(C)(C)CC5)CC4)cc3Oc3cnc4[nH]ccc4c3)cc2[N+](=O)[O-])CC1', 'human platelet Caspase-3 activity', 0.31),
  ('CN1CCC(CCCNc2ccc(S(=O)(=O)NC(=O)c3ccc(N4CCN(CC5=C(c6ccc(C(F)(F)F)cc6Cl)CC(C)(C)CC5)CC4)cc3Oc3cnc4[nH]ccc4c3)cc2[N+](=O)[O-])CC1', 'human platelet Caspase-3 activity', 0.48);

---

Item-by-item account of pIC50
- TARGET_DESC: BCL-2/BAK (Homo sapiens, UniProt P10415)
- PROTOCOL_DETAILS: Screening on inhibitory activity for BCL-2/BAK binding (Cisbio HTRF kit)
pIC50: −log10 of the molar value.
READOUT_TYPE: pIC50

INSERT INTO assay_data (mol, readout_type, endpoint_value) VALUES
  ('CC1(C)CCC(CN2CCN(c3ccc(C(=O)NS(=O)(=O)c4ccc(NCCC5CCN(CCF)CC5)c([N+](=O)[O-])c4)c(Oc4cnc5[nH]ccc5c4)c3)CC2)=C(c2ccc(C(F)(F)F)cc2Cl)C1', 'pIC50', 8.68),
  ('CC1(C)CCC(CN2CCN(c3ccc(C(=O)NS(=O)(=O)c4ccc(NC[C@@H]5CCOC5)c([N+](=O)[O-])c4)c(Oc4cnc5[nH]ccc5c4)c3)CC2)=C(c2ccc(C(F)(F)F)cc2Cl)C1', 'pIC50', 8.75),
  ('CC1(C)CCC(CN2CCN(c3ccc(C(=O)NS(=O)(=O)c4ccc(NCC5CCOCC5)c([N+](=O)[O-])c4)c(Oc4cnc5[nH]ccc5c4)c3)CC2)=C(c2ccc(C(F)(F)F)c(Cl)c2)C1', 'pIC50', 9.10);

Origin of the recorded values: patent US20250257064A1
